These entries and their values trace back to ChEMBL document CHEMBL4619778.

Entries and their Ki
assayedSystem: Neuropeptide Y receptor type 2 (Homo sapiens, UniProt P49146)
Sequence (P49146 whole entry): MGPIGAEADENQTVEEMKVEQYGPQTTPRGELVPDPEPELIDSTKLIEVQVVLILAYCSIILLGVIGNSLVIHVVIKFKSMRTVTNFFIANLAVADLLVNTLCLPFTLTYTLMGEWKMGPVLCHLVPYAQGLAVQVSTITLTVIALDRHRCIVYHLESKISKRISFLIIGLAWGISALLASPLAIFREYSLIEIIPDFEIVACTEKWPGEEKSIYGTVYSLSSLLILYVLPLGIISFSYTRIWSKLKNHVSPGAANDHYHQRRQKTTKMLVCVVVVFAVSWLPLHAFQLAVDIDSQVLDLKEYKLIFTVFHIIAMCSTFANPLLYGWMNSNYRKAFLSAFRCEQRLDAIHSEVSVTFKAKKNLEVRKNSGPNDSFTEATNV
assayOverview: Displacement of [3H]propionyl-pNPY from human Y2 receptor expressed in CHO cells measured after 2 hrs by microbeta liquid scintillation counting analysis
Assay type: cell-based
assayContext: read-out: pKi (converted)
Square brackets hold non-standard residues; d marks the D form. Peptide text beside a SMILES is read from it. ξ: configuration not given here. ξOrn = NCCCC(N)C(=O)O
measuredMetric: Ki

INSERT INTO measurements (compound, experimentalvalue) VALUES
  ('CC(C)C[C@H](NC(=O)[C@H](CCCNC(=N)N)NC(=O)[C@H](Cc1ccc(O)cc1)NC(=O)[C@H](CCCNC(=N)N)NC(=O)CCC(=O)O)C(=O)N[C@@H](CCCNC(=N)N)C(=O)N[C@@H](Cc1ccc(O)cc1)C(N)=O', '> 3.16 µM'),
  ('CC(C)C[C@H](NC(=O)[C@H](CCCNC(=N)N)NC(=O)[C@H](Cc1ccc(O)cc1)NC(=O)[C@@H](N)CCCNC(N)=O)C(=O)N[C@@H](CCCNC(=N)N)C(=O)N[C@@H](Cc1ccc(O)cc1)C(N)=O', '> 3.16 µM'),
  ('CC(C)C[C@H](NC(=O)[C@@H](N)CCCNC(=N)N)C(=O)N[C@@H](CCCNC(=N)N)C(=O)N[C@@H](Cc1ccc(O)cc1)C(N)=O', '> 10 µM'),
  ('CC(=O)N[C@@H](CCCNC(=N)N)C(=O)N[C@@H](Cc1c[nH]c2ccccc12)C(=O)N[C@@H](CCCNC(=N)N)C(=O)N[C@@H](CC(C)C)C(=O)N[C@@H](CCCNC(=N)N)C(=O)N[C@@H](Cc1ccc(O)cc1)C(N)=O', '> 1 µM'),
  ('CN[C@@H](CCCNC(=N)N)C(=O)N[C@@H](CC(C)C)C(=O)N[C@@H](CCCNC(=N)N)C(=O)N[C@@H](Cc1ccc(O)cc1)C(N)=O', '> 1 µM'),
  ('CC(=O)N[C@@H](CCCNC(=N)N)C(=O)NC(CCCN)C(=O)NCC(=O)N[C@@H](Cc1c[nH]c2ccccc12)C(=O)N[C@@H](CCCNC(=N)N)C(=O)N[C@@H](CC(C)C)C(=O)N[C@@H](CCCNC(=N)N)C(=O)N[C@@H](Cc1ccc(O)cc1)C(N)=O (some centres not stated) (Ac-R[ξOrn]GWRLRY-NH2)', '> 1 µM'),
  ('CC(C)C[C@H](NC(=O)[C@H](CCCNC(=N)N)NC(=O)[C@H](Cc1ccc(O)cc1)NC(=O)[C@@H](N)CCCNC(=N)N)C(=O)N[C@@H](CCCNC(=N)N)C(=O)N[C@@H](Cc1ccc(O)cc1)C(N)=O', '> 10 µM');
